Source: paper PMC9166766

Tested on: CNAβ2 (calcineurin catalytic subunit)
Assay: Mammalian two-hybrid assay (VP16 AD-CNAβ2 and GAL4 DBD-peptides, pG5-luc) in HEK293T cells
Format: cell-based
Details: CNAβ2, 24 h, repeated three times
No end group written: not given here.
Property Measured: interaction with / binding affinity to CNA (mammalian two-hybrid)

[[record]]
substance = "CABIN1-L-1-2: 10 amino acids from proline 2146 to proline 2155 of full-length CABIN1; expressed GST-, GAL4 DBD- or HA-mCherry-tagged (PEITVTPPTP; also: expressed GST-, GAL4 DBD- or HA-mCherry-tagged, end not given here)"
value_measured = "still bound to CNA"

[[record]]
substance = "CABIN1-L-1-1: CABIN1-L-1 with N-terminal residues removed (PPEITVTPPTP; also: GAL4 DNA-binding domain tag)"
value_measured = "still bound to CNA"

